# System: CAL-27
# ASSAY COMMENT: Antiproliferative activity against human CAL-27 cells assessed as cell growth inhibition incubated for 72 hrs by CCK-8 assay
# Format: functional, cell-based
# CONDITIONS USED: CAL-27, 72 h
pIC50: −log10 of the molar value.
Decide by pIC50: equal to or exceeding 7 means True, less means False.

Answered cases to consult:
MOLECULE	CLASS LABEL
C=CCNC(=O)Nc1nc2ccc(CCCC)cc2[nH]1	False
CCCCCc1ccc2nc(NC(=O)OC(C)C)[nH]c2c1	False
CCCCc1ccc2nc(NC(=O)OC(C)CC)[nH]c2c1 (stereo unspecified)	False
CCCCc1ccc2nc(NC(=O)NCCc3ccccc3)[nH]c2c1	False
CCCCc1ccc2[nH]c(NC(=O)OC)nc2c1	False
COc1cc2c(c(OC)c1OC)-c1ccc(OC)c(=O)cc1[C@@H](NC(C)=O)CC2	True

Task: For this molecule, is measured pIC50 7 or higher? `CC[C@]1(O)C[C@@H]2CN(CCc3c([nH]c4ccccc34)[C@@](C(=O)OC)(c3cc4c(cc3OC)N(C)[C@H]3[C@@](O)(C(=O)OC)[C@H](OC(C)=O)[C@]5(CC)C=CCN6CC[C@]43[C@@H]65)C2)C1`
Result: True

Task: Can `COc1ccc(/C=C\c2cc(OC)c(OC)c(OC)c2)cc1O` be said to have pIC50 at or above 7?
Result: True

Task: Is pIC50 for `CCCCc1ccc2nc(NC(=O)OCCC)[nH]c2c1` at or above 7?
Result: False

---

# TARGET OR TEST SYSTEM: Tubulin (Homo sapiens) (UniProt P68371+Q9H4B7+P0DPH7+P68366+Q13509+Q71U36+P04350+Q3ZCM7+P07437+P68363+Q9BQE3+Q6PEY2+Q13885+Q9BVA1+Q9BUF5)
# ASSAY COMMENT: Inhibition of tubulin polymerization (unknown origin) at 20 micromol/L by fluorescence based analysis
# Format: protein-complex assay
# CONDITIONS USED: dose 20.0 µmol/L
# inhibition >= 40% gives met, anything below gives not met

COMPOUND	CLASS LABEL
Cc1ccc2nc(NC(=O)OC(C)C)[nH]c2c1	met
CCCCCc1ccc2nc(NC(=O)OC(C)C)[nH]c2c1	met

Task: Threshold query (inhibition >= 40%) on `CCCCc1ccc2nc(NC(=O)NC(C)C)[nH]c2c1`
Result: not met

Task: Say whether `CC(C)OC(=O)Nc1nc2ccc(C#N)cc2[nH]1` shows inhibition of 40% or more.
Result: not met

Task: Is reported inhibition greater than or equal to 40% here: `CCCCCCNC(=O)Nc1nc2ccc(CCCC)cc2[nH]1`
Result: not met

Task: Can `CCCCc1ccc2nc(NC(=O)NCC)[nH]c2c1` be said to have inhibition at or above 40%?
Result: not met

Task: Tell me whether inhibition is at least 40% here: `CC(C)OC(=O)Nc1nc2ccc(F)cc2[nH]1`
Result: not met

Task: Hi, just wondering whether `Cc1cc2nc(NC(=O)OC(C)C)[nH]c2cc1C` shows inhibition of 40% or higher.
Result: met

Task: Does the compound `CCCCCCCOC(=O)Nc1nc2ccc(CCCC)cc2[nH]1` have recorded inhibition that is 40% or more?
Result: not met

Task: Exam item: decide whether the reported inhibition for CCCCc1ccc2[nH]c(NC(=O)OC)nc2c1 [PARBENDAZOLE] is at least 40%.
Result: met

---

# TARGET OR TEST SYSTEM: Tubulin (Homo sapiens) (UniProt P68371+Q9H4B7+P0DPH7+P68366+Q13509+Q71U36+P04350+Q3ZCM7+P07437+P68363+Q9BQE3+Q6PEY2+Q13885+Q9BVA1+Q9BUF5)
# ASSAY COMMENT: Inhibition of tubulin polymerization (unknown origin) at 20 micromol/L by fluorescence based analysis
# Assay type: protein-complex assay
# CONDITIONS USED: dose 20.0 µmol/L
Range-based classes on measured inhibition: lo = under 8%, med = from 8% up to 40%, hi = 40% and over

# example entries with known answers
COMPOUND	CLASS LABEL
CCCCc1ccc2nc(NC(=O)NCCc3ccccc3)[nH]c2c1	med
C=CCOC(=O)Nc1nc2ccc(CCCC)cc2[nH]1	hi
CC(C)OC(=O)Nc1nc2cc(F)c(F)cc2[nH]1	med
CC(C)OC(=O)Nc1nc2ccc(C(F)(F)F)cc2[nH]1	lo
C=CCNC(=O)Nc1nc2ccc(CCCC)cc2[nH]1	med

Task: Which category fits this record: `CCCCc1ccc2nc(NC(=O)NC3CCCC3)[nH]c2c1`
Result: med

Task: Into which bin does this compound go? `CCCCc1ccc2nc(NC(=O)Cc3ccccc3)[nH]c2c1`
Result: lo

---

# TARGET OR TEST SYSTEM: Tubulin (Homo sapiens) (UniProt P68371+Q9H4B7+P0DPH7+P68366+Q13509+Q71U36+P04350+Q3ZCM7+P07437+P68363+Q9BQE3+Q6PEY2+Q13885+Q9BVA1+Q9BUF5)
# ASSAY COMMENT: Inhibition of tubulin polymerization (unknown origin) at 20 micromol/L by fluorescence based analysis
# Type: protein-complex assay
# CONDITIONS USED: dose 20.0 µmol/L
VALUE KIND: inhibition (%)
Express your answer in %, writing the number without its unit.

Recorded inhibition, per entry:
MOLECULE	inhibition, %
CCCCc1ccc2nc(NC(=O)OC3CCCC3)[nH]c2c1	8.6
CCCCc1ccc2nc(NC(=O)OC(C)C)[nH]c2c1	98.9
CCCCc1ccc2nc(NC(=O)NC(C)(C)C)[nH]c2c1	9.79
CCCCc1ccc2nc(NC(=O)OC(C)CC)[nH]c2c1 (centres undefined)	99.7
CCCCc1ccc2nc(NC(=O)C3CCOCC3)[nH]c2c1	100

inhibition reading for `CCCCc1ccc2nc(NC(=O)OCCCCl)[nH]c2c1` : 36.4

inhibition measured on `CCCCc1ccc2nc(NC(=O)NCCC)[nH]c2c1` = 2.99

Noted for `CCCCCCOC(=O)Nc1nc2ccc(CCCC)cc2[nH]1` : its inhibition reads 0

inhibition reported for this molecule `CCCCc1ccc2nc(NC(=O)NCCOC(=O)C(C)C)[nH]c2c1` : 0
